All values here come from PubChem BioAssay AID2060894.

System: K12877-001-R-J1-PDC complex spheroid viability;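 further: tumour cells co-cultured with HUVEC and mesenchymal stem cells in spheroids; spheroids exposed to agents for one week before readout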
test.protocol: Anticancer human tumor K12877-001-R-J1-PDC patient-derived lung adenocarcinoma cell line growth inhibition [RAS]
condition.summary: second compound 0.316 µM; first compound 0.316 µM; active compounds read low
Listed molecules paired with reported viability, T/C

[
  {
    "molecule": "CCN1CCN(Cc2ccc(Nc3ncc(F)c(-c4cc(F)c5nc(C)n(C(C)C)c5c4)n3)nc2)CC1 + C#Cc1c(F)ccc2cc(O)cc(-c3ncc4c(N5CC6CCC(C5)N6)nc(OCC56CCCN5CC(F)C6)nc4c3F)c12",
    "viability, T/C": "109%"
  },
  {
    "molecule": "C=CC(=O)N1CCN(c2nc(OCC3CCCN3C)nc3c(F)c(-c4nc(N)cc(C)c4C(F)(F)F)c(Cl)cc23)C(C)C1 (stereo not given) + C#Cc1c(F)ccc2cc(O)cc(-c3ncc4c(N5CC6CCC(C5)N6)nc(OCC56CCCN5CC(F)C6)nc4c3F)c12",
    "viability, T/C": "75%"
  },
  {
    "molecule": "CCC(CC)c1cc(NC2CCC(N)C2)n2nccc2n1 (stereo not given) + C=CC(=O)N1CCN(c2nc(OCC3CCCN3C)nc3c(F)c(-c4nc(N)cc(C)c4C(F)(F)F)c(Cl)cc23)C(C)C1",
    "viability, T/C": "86.3%"
  },
  {
    "molecule": "CC(Nc1ccc2c(c1)OCCn1cc(N3C(=O)OCC3C(F)F)nc1-2)C(N)=O (stereo not given) + C#Cc1c(F)ccc2cc(O)cc(-c3ncc4c(N5CC6CCC(C5)N6)nc(OCC56CCCN5CC(F)C6)nc4c3F)c12",
    "viability, T/C": "73.9%"
  },
  {
    "molecule": "CC1(O)CCCC1n1c(=O)c(C(F)F)cc2cnc(NC3CCN(S(C)(=O)=O)CC3)nc21 (stereo not given) + C=CC(=O)N1CCN(c2nc(OCC3CCCN3C)nc3c(F)c(-c4nc(N)cc(C)c4C(F)(F)F)c(Cl)cc23)C(C)C1",
    "viability, T/C": "58.7%"
  },
  {
    "molecule": "C=CC(=O)Nc1cc(Nc2nccc(-c3cn(C)c4ccccc34)n2)c(OC)cc1N(C)CCN(C)C + C=CC(=O)N1CCN(c2nc(OCC3CCCN3C)nc3c(F)c(-c4nc(N)cc(C)c4C(F)(F)F)c(Cl)cc23)C(C)C1",
    "viability, T/C": "79.8%"
  },
  {
    "molecule": "CC(C)NCC(C(=O)N1CCN(c2ncnc3c2C(C)CC3O)CC1)c1ccc(Cl)cc1 (stereo not given) + C#Cc1c(F)ccc2cc(O)cc(-c3ncc4c(N5CC6CCC(C5)N6)nc(OCC56CCCN5CC(F)C6)nc4c3F)c12",
    "viability, T/C": "78.9%"
  },
  {
    "molecule": "NC1c2ccccc2OC12CCN(c1cnc3c(N4CCCc5ncccc54)n[nH]c3n1)CC2 (stereo not given) + C=CC(=O)N1CCN(c2nc(OCC3CCCN3C)nc3c(F)c(-c4nc(N)cc(C)c4C(F)(F)F)c(Cl)cc23)C(C)C1",
    "viability, T/C": "70.3%"
  },
  {
    "molecule": "C=CC(=O)Nc1cc(Nc2nccc(-c3cn(C)c4ccccc34)n2)c(OC)cc1N(C)CCN(C)C + C#Cc1c(F)ccc2cc(O)cc(-c3ncc4c(N5CC6CCC(C5)N6)nc(OCC56CCCN5CC(F)C6)nc4c3F)c12",
    "viability, T/C": "108%"
  },
  {
    "molecule": "CCN1CCN(Cc2ccc(Nc3ncc(F)c(-c4cc(F)c5nc(C)n(C(C)C)c5c4)n3)nc2)CC1 + C=CC(=O)N1CCN(c2nc(OCC3CCCN3C)nc3c(F)c(-c4nc(N)cc(C)c4C(F)(F)F)c(Cl)cc23)C(C)C1",
    "viability, T/C": "78.6%"
  }
]
